assay: FRG1 promoter luciferase signal modulators, primary screen, FRG1 inhibition for FSHD, cell-based, C2C12 myotubes, firefly/Renilla luciferase, luminescence (AID 1084); settings: higher = more signal, called active from +8 up or from −8 down
ASSAY_METRIC: z-score
Answers are plain numbers.

Past entries and their recorded results:
COMPOUND	z-score
COC(=O)[C@H](C)NC(=O)CCC1CC(OC(=O)NCc2ccc3c(c2)OCO3)CC2(CCCC(COC(=O)NCCCN3CCCC3=O)O2)O1 (stereo not given in full)	-0.787
CCOC(=O)[C@H](Cc1ccccc1)NC(=O)CCC1CC(OC(=O)NCc2ccc3c(c2)OCO3)CC2(CCCC(COC(=O)NCCCN3CCCC3=O)O2)O1 (stereo not given in full)	1.5
CC(=O)OC[C@H]1O[C@H](C#CCC2CCCCC2)C=C[C@@H]1OC(C)=O	1.23
CCc1cc2c(nc1CC)CCN(CCC(C)=NOCC[C@@H]1C=C[C@H](OC(C)=O)[C@@H](COC(C)=O)O1)C2	0.485
CO[C@H]1COC(=O)[C@H](C)COC(=O)[C@@H](OCc2ccccc2)C=C[C@@H]1C	-0.224

Quick batch: z-score for everything below.
1. CCN1C(=O)[C@H]2[C@H]3[C@H](O)[C@H](O)CC(=NO[C@H](C)c4cn([C@@H]5COC[C@H]5O)nn4)[C@@H]3CC[C@H]2C1=O
2. CO[C@H]1COC(=O)CC=C[C@@H](C)COC(=O)[C@H]2CCCN2C(=O)CC=C[C@H]1C
3. CC=CC1=C(CO)[C@H](O)[C@H]2O[C@H]2[C@@H]1O
4. C=CC[C@@H]1C=C[C@H](ON=CC[C@@H]2C=C[C@H](OC(C)=O)[C@@H](COC(C)=O)O2)[C@@H](CO)O1
5. CC(CCN1CCCCc2nc(C)c(C)cc21)=NO[C@@H](C)c1cc(-c2c(C)cc(C)cc2C)no1
6. CSCC[C@@H]1NC(=O)CC=C[C@@H](C)COC(=O)[C@H](C)COC1=O
7. CC(C)=NOC(C)CN1CCCc2nc(C)c(C)cc21 (stereo not given)
8. COc1ccc2c(c1)O[C@@H](c1cccc(C(F)(F)F)c1)[C@H](O)C2=O

0.225
-0.352
0.746
0.411
-1.49
-1.13
0.833
-0.682

Quick batch: z-score for everything below.
1. CCOC(=O)CCN1C(=O)[C@H]2[C@@H]3C(=CC[C@H]2C1=O)C(=O)[C@H]1O[C@H]1[C@H]3O
2. CCN1C(=O)[C@H]2[C@H]3[C@H](O)[C@H](O)CC(=NOC[C@@H](O)[C@H]4O[C@@H]5OC(C)(C)O[C@@H]5[C@H]4O)[C@@H]3CC[C@H]2C1=O

[-2.91, -0.116]

###

experiment: compound binding in COS7 lysate, probe aLAP1, primary screen, cell lysate, small-molecule microarray (AID 1124); settings: probe aLAP1, fluorescence, higher = more signal;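 note: lysate comes from COS7 cells expressing LAP1 and is applied at 0.3 µg/mL; score merges spot fluorescence near 667 nm with signal-to-noise over triplicate slides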
Assign label 1 to entries whose composite z-score meets or exceeds 0.05; assign label 0 to the rest.

Worked examples follow.
> print(dat)
                                   compound  label.class
1  C#CCCCON=C1[C@H]2CCn3c(=O)n([C@@H](CC)c4ccccc4)c(=O)n3[C@H]2[C@H](O)[C@@H]2O[C@H]12      label 0
2  CC(CCC(=O)OC[C@H]1O[C@H](C#Cc2ccccc2)C=C[C@@H]1Oc1ccc(C)cc1)=NOC(C)CN1CCCc2nc(C)c(C)cc21 (stereo not given in full)      label 0
3  C=CC[C@@H]1C=C[C@H](Oc2ccc(C)cc2)[C@@H](COC(=O)NCc2cccc3ccccc23)O1      label 0
4  CO[C@H]1COC(=O)CC=C[C@@H](C)COC(=O)[C@H]2CCCN2C(=O)CC=C[C@H]1C      label 1
5  COc1ccc(O[C@H]2C=C[C@@H](c3ccccc3)O[C@@H]2COC(=O)NCc2cccc3ccccc23)cc1      label 0

In the following, a different compound is considered.
Please indicate if the recorded composite z-score for CCCCOC(OCCCC)C(O)CSc1ccc2ccccc2c1 (stereo not given) meets or exceeds 0.05.
label 0

###

target: Fibroblast growth factor 2 (Homo sapiens) (UniProt P09038); assay: FGF2 binders on small-molecule microarrays, primary screen, biochemical, small-molecule microarray, 635/667 nm fluorescence (AID 1133); settings: small-molecule microarray binding, FGF2, fluorescence 635/667; higher = more signal
Sequence (P09038 whole entry, looked up): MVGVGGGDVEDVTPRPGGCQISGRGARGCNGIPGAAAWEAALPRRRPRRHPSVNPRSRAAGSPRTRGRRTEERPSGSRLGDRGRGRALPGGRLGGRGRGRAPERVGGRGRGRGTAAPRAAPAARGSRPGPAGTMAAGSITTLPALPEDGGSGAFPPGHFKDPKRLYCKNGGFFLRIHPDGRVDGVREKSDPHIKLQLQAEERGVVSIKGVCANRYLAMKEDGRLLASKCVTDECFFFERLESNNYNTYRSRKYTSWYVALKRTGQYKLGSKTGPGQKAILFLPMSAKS
ASSAY_METRIC: composite z-score
Answers are plain numbers.

Past entries and their recorded results:
COMPOUND	TARGET_SYSTEM	composite z-score
C#CCCCON=C1[C@H]2CCn3c(=O)n([C@@H](CC)c4ccccc4)c(=O)n3[C@H]2[C@H](O)[C@@H]2O[C@H]12	Fibroblast growth factor 2 (Homo sapiens) (UniProt P09038)	0.639
O=C1[C@H]2[C@H]3[C@H](O)[C@H](O)CC(=NOC[C@@H](O)COCc4ccco4)[C@@H]3CC[C@H]2C(=O)N1C1CCCCC1	Fibroblast growth factor 2 (Homo sapiens) (UniProt P09038)	1.37
CC(CCN1CCCc2nc(C)c(C)cc21)=NOC[C@@H](O)COCc1ccco1	Fibroblast growth factor 2 (Homo sapiens) (UniProt P09038)	2.19
CO[C@H]1C[C@@H]2C[C@H](O)CC(CC(=O)O[C@@H](C=CCC(C)C)C[C@@H]3CC[C@H](C)[C@@H](C1)O3)O2	Fibroblast growth factor 2 (Homo sapiens) (UniProt P09038)	0.361
C[C@H]1C=CCC(=O)OC[C@H](C)C(=O)N2CCC[C@H]2C(=O)OC1	Fibroblast growth factor 2 (Homo sapiens) (UniProt P09038)	2.01

Quick batch: composite z-score for everything below.
1. CCOC(=O)[C@H](Cc1ccccc1)NC(=O)CCC1CC(OC(=O)NCc2ccc3c(c2)OCO3)CC2(CCCC(COC(=O)NCCc3ccc(Cl)cc3)O2)O1 (some centres undefined)
2. COC(=O)[C@@H]1CC[C@H](C)[C@@H](c2ccc(C)cc2)N1C(=O)c1ccc(C=NOC[C@H]2O[C@H](c3ccccc3)C=C[C@@H]2Oc2ccc(OC)cc2)cc1
3. O=C1C2=CC[C@H]3C(=O)N(c4ccc(F)cc4F)C(=O)[C@H]3[C@H]2[C@H](O)[C@@H]2O[C@H]12
4. CC(CCN1CCCCc2nc(C)c(C)cc21)=NO[C@@H](C)c1cc(-c2c(C)cc(C)cc2C)no1

1: 0.303; 2: 0.174; 3: 0.34; 4: -0.682

###

assay: modulators of HCV replicon luciferase signal, primary screen, HCV replication inhibitor project, Huh7 cells, luciferase reporter (AID 1109); details: 48 h, higher = more signal;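 note: huh7 hepatoma cells harbouring a luciferase neomycin HCV replicon reporter; luciferase luminescence as measure of HCV replicon replication; test concentration not given here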
Please go through the items and note down their z-score.
Give bare numbers.

Quick batch: z-score for everything below.
1. CC(C)[C@@H](OCc1ccccc1)[C@H](C)CON=C1[C@H]2CCn3c(=O)n(-c4ccccc4)c(=O)n3[C@H]2[C@H](O)[C@@H]2O[C@H]12
2. COC(=O)CC=C[C@@H](C)[C@@H](C=NOC(C)CN1CCCCc2nc(C)c(C)cc21)OC (stereo not given in full)
3. O=C1C2=CC[C@H]3C(=O)N(Cc4ccccc4)C(=O)[C@H]3[C@H]2[C@H](O)[C@@H]2O[C@H]12
4. Cc1ccc(C(C)C)n1C(=O)OC(C)(C)C
5. COc1ccc(COC(=O)NN=C2C[C@@H](O)[C@@H](O)[C@@H]3[C@@H]4C(=O)N(c5cccc(Oc6ccccc6)c5)C(=O)[C@@H]4CC[C@H]23)cc1

1: -4.23; 2: -1.23; 3: -5.09; 4: 1.85; 5: -1.46

Quick batch: z-score for everything below.
1. CCN1C(=O)[C@H]2[C@H]3[C@H](O)[C@H](O)CC(=NOCC[C@@H]4C=C[C@H](OC(C)=O)[C@@H](COC(C)=O)O4)[C@@H]3CC[C@H]2C1=O
2. C#CCCCON=C1C[C@@H](O)[C@@H](O)[C@@H]2[C@@H]3C(=O)N(C[C@@H]4CCCO4)C(=O)[C@@H]3CC[C@H]12
3. CCOC(=O)[C@H](Cc1ccccc1)NC(=O)CCC1CC(OC(=O)NCc2cccc3ccccc23)CC2(CCCC(COC(=O)NCCc3ccc(Cl)cc3)O2)O1 (stereo not given in full)
4. CC(C)[C@@H](OCc1ccccc1)[C@H](C)C=NO[C@H](C)c1cn([C@@H]2COC[C@H]2O)nn1
5. CCOC(=O)CCN1C(=O)[C@H]2[C@H]3[C@H](O)[C@H](O)CC(=NO[C@@H]4O[C@H](CO)[C@@H](O)[C@H](O)[C@H]4O)[C@@H]3CC[C@H]2C1=O

1. -1.04
2. 0.403
3. 0.246
4. -1.16
5. 0.891

Quick batch: z-score for everything below.
1. CC1(C)O[C@H]2OC([C@H](O)CON3C(=O)c4ccccc4C3=O)[C@H](O)[C@H]2O1 (stereo not given in full)
2. CC(C)=CCCC(C)=CCON=C1C[C@@H](O)[C@@H](O)[C@@H]2[C@@H]3C(=O)N(Cc4ccc5c(c4)OCO5)C(=O)[C@@H]3CC[C@H]12
3. O=C1[C@H]2[C@H]3[C@H](O)[C@H](O)CC(=NOCc4ccccc4)[C@H]3CC[C@H]2C(=O)N1C1CCCCC1

-0.585
-1.45
0.409

Quick batch: z-score for everything below.
1. CCOC(=O)[C@H](CC(C)C)NC(=O)CCC1CC(OC(=O)NCc2ccc3c(c2)OCO3)CC2(CCCC(COC(=O)NCCc3ccc(Cl)cc3)O2)O1 (stereo not given in full)
2. CCOC(=O)[C@H](CC(C)C)NC(=O)CCC1CC(OC(=O)NCc2ccc3c(c2)OCO3)CC2(CCCC(COC(=O)NCc3ccccc3)O2)O1 (stereo not given in full)
3. CC(=O)OC[C@H]1O[C@H](CCON=C(C)CCN2CCCc3nc(C)c(C)cc32)C=C[C@@H]1OC(C)=O
4. CC(C)C(=O)N[C@H]1CCCN1C(=O)C=Cc1ccccc1
5. CC(C)CN1CCc2nc(-c3ccccc3)c3c(c2C1)CO[C@@H](C)C3
6. C[C@H]1CC[C@H]2C(=O)OC(COc3ccc(C(C)(C)C)cc3)CN2[C@@H]1c1ccc(Br)cc1 (stereo not given in full)

1. 0.225
2. -0.0695
3. -0.186
4. -0.206
5. -0.791
6. 1.1

Quick batch: z-score for everything below.
1. COC(=O)C(C(=O)OC)C1CCCC(=O)C1 (stereo not given)
2. CC(C)=NO[C@H](C)c1cn([C@@H]2COC[C@H]2O)nn1
3. O=C1C[C@@H](O)[C@@H](O)[C@@H]2[C@@H]3C(=O)N(c4ccc(F)cc4F)C(=O)[C@@H]3CC[C@H]12
4. CCOC(=O)NN=C1C[C@@H](O)[C@@H](O)[C@@H]2[C@@H]3C(=O)N(C[C@@H]4CCCO4)C(=O)[C@@H]3CC[C@H]12
5. C#CCCCON=C1[C@H]2CCn3c(=O)n([C@@H](CC)c4ccccc4)c(=O)n3[C@H]2[C@H](O)[C@@H]2O[C@H]12
6. CC(C)(C)N1C(=O)[C@H]2[C@H]3[C@H](O)[C@H](O)CC(=NOC[C@@H](O)COCc4ccco4)[C@H]3CC[C@H]2C1=O

0.593
0.78
-0.313
-0.0078
-3.43
0.61
